experiment: adipocyte viability effects, profiling panel, cell-based, 3T3-L1 adipocytes, calcein-AM fluorescence, 48 h, basal (AID 1163); conditions: 3T3-L1 adipocytes viability, higher = more signal; note: test concentration not given here
Please respond with Condition met when measured z-score is strictly beneath 0.1, and with Condition not met in all other cases.

CO[C@@H]1COC(=O)[C@@H](C)NC(=O)CC=C[C@@H](C)[C@H](NS(=O)(=O)c2ccc(C)cc2)COC(=O)[C@H](C)NC(=O)CC=C[C@H]1C | Condition not met
Cc1ccc(S(=O)(=O)N[C@@H]2COC(=O)[C@@H](C)COC(=O)CC=C[C@H]2C)cc1 | Condition not met
O=C1[C@H]2[C@H]3[C@H](O)[C@H](O)CC(=NO[C@@H]4O[C@H](CO)[C@@H](O)[C@H](O)[C@H]4O)[C@H]3CC[C@H]2C(=O)N1c1cccc(Oc2ccccc2)c1 | Condition met
CCOC(=O)[C@H](CC(C)C)NC(=O)CCC1CC(OC(=O)NCc2cccc3ccccc23)CC2(CCCC(COC(=O)NCc3ccncc3)O2)O1 (some centres undefined) | Condition met
CCOC(=O)[C@H](Cc1ccccc1)NC(=O)CCC1CC(OC(=O)NCCc2ccc(F)cc2)CC2(CCCC(COC(=O)NCCOC)O2)O1 (some centres undefined) | Condition met
O=C(NN=C1C[C@@H](O)[C@@H](O)[C@@H]2[C@@H]3C(=O)N(C4CCCCC4)C(=O)[C@@H]3CC[C@@H]12)OCc1ccccc1 | Condition not met
O=C1C=C[C@@H](O)[C@@H]2[C@@H]3C(=O)N(C[C@@H]4CCCO4)C(=O)[C@@H]3CC[C@@H]12 | Condition not met
CO[C@@H]1C=CCC(=O)N2CCC[C@H]2C(=O)OC[C@@H](C)C(=O)OC[C@H]1C | Condition not met
COc1cccc([C@H]2Oc3ccc(OC)cc3C(=NO[C@@H]3O[C@H](COC(C)=O)[C@@H](OC(C)=O)[C@H](OC(C)=O)[C@H]3OC(C)=O)[C@@H]2O)c1 | Condition met
CCCNC(=O)OC[C@H]1O[C@H](CCON=C(C)CCN2CCc3nc(CC)c(CC)cc3C2)C=C[C@@H]1Oc1ccc(OC)cc1 | Condition not met

[in] Hello, is z-score of the following molecule strictly smaller than 0.1? O=C1[C@H]2[C@H]3[C@H](O)[C@H](O)CC(=NOCc4ccccc4)[C@@H]3CC[C@H]2C(=O)N1C[C@@H]1CCCO1
[out] Condition met

[in] A record lists Cc1ccc(S(=O)(=O)OC[C@H]2CN3[C@H](c4ccc(Br)cc4)[C@@H](C)CC[C@H]3C(=O)O2)cc1 . Is its z-score below 0.1?
[out] Condition met

[in] In the record for COc1ccc(O[C@H]2C=C[C@@H](c3ccccc3)O[C@@H]2CON=C(C)CCC(=O)OC[C@H]2O[C@H](c3ccccc3)C=C[C@@H]2Oc2ccc(OC)cc2)cc1 , is z-score less than 0.1?
[out] Condition met

[in] Hello, I'm reviewing records and need to know if z-score of CCOC(=O)[C@H](CC(C)C)NC(=O)CCC1CC(OC(=O)NCc2cccc3ccccc23)CC2(CCCC(COC(=O)NCCC(C)C)O2)O1 (some centres undefined) is below 0.1. Could you check?
[out] Condition not met

[in] State whether 0.1 exceeds z-score recorded for CCOC(=O)[C@H](Cc1ccccc1)NC(=O)CCC1CC(OC(=O)NCCc2ccc(F)cc2)CC2(CCCC(COC(=O)NCCCN3CCCC3=O)O2)O1 (some centres undefined) .
[out] Condition met

[in] For this molecule, is z-score lower than 0.1? CO[C@H]1COC(=O)CCC[C@@H](C)[C@H](OC)COC(=O)[C@@H]2CCCN2C(=O)CC=C[C@@H]1C
[out] Condition not met
